assay: clinical; conditions: human, plasma, po, 3 mg
valueKind: concentration at 24 h
Give me the value, and tack the unit on after it.

# input compound: CC(=O)Nc1cccc(-n2c(=O)n(C3CC3)c(=O)c3c(Nc4ccc(I)cc4F)n(C)c(=O)c(C)c32)c1 [Compound] ; wanted: its concentration at 24 h
19.5 ng/mL

====

assay: in vivo; details: female, Sprague Dawley, rat, in vivo, po, 1 mg/m2
valueKind: Cmax at 3 weeks (ng/mL)
Express your answer in ng/mL, writing the number without its unit.

Value lookup for Cmax at 3 weeks; key = CC(=O)Nc1cccc(-n2c(=O)n(C3CC3)c(=O)c3c(Nc4ccc(I)cc4F)n(C)c(=O)c(C)c32)c1
29.4

Reference source: patent US20130266649A1
